- MEASUREMENT_DESCRIPTION: in vivo
- PARTICULARS: mouse, po
MEASURED_PARAMETER: bioavailability (%)

(I) O=C(NC(c1ccc(Cl)cc1)c1ccnc(F)c1)[C@@H]1CC[C@@H](N2CCOCC2)C[C@H]1c1ccc(Br)cc1 (some centres undefined)
(II) O=C(NC(c1ccc(Cl)cc1)c1ccc(F)cn1)[C@@H]1CC[C@@H](N2CCOCC2)C[C@H]1c1ccc(Br)cc1 (some centres undefined)
(III) O=C(NC(c1ccc(Cl)cc1)c1ccncc1Cl)[C@@H]1CC[C@@H](N2CCOCC2)C[C@H]1c1ccc(Br)cc1 (some centres undefined)
(IV) O=C(NC(c1ccc(Cl)cc1)c1cnccn1)[C@@H]1CC[C@@H](N2CCOCC2)C[C@H]1c1ccc(Br)cc1 (some centres undefined)
Ranking field: bioavailability; order: falling. Labels, ranked as asked.
I, II, III, IV
(I: 90%, II: 50%, III: 17%, IV: 5.2%)
